Test: Thermodynamic solubility of voruciclib HCl by the shake-flask method (HPLC)
Type: physicochemical
Conditions: toluene, organic solvent or mixture, thermodynamic from solid, Toluene; RT, 24 h, amorphous API, HPLC; read-out: Solubility
Where a name gives a salt, the structure may show the parent alone.
recorded_metric: solubility at 24 h (µg/mL)
Expressed in µg/mL, but write only the number.

So for CN1CC[C@@H](c2c(O)cc(O)c3c(=O)cc(-c4ccc(C(F)(F)F)cc4Cl)oc23)[C@@H]1CO [voruciclib HCl] , the logged solubility at 24 h turned out to be 100

###

Assay: Solubility of salts in water and in 0.2 M phosphate buffer pH 6 at 37° C. after 4 hours (HPLC-DAD)
Type: physicochemical
Conditions: water, 37° C., about 1 mg salt in 1 mL, pH at end of equilibration
recorded_metric: pH (4 h)
The answer should be written as a number, with no unit following it.

compound	pH (4 h)
CN1CC[C@@H](c2c(O)cc(O)c3c(=O)cc(-c4ccc(C(F)(F)F)cc4Cl)oc23)[C@@H]1CO.CN1CC[C@@H](c2c(O)cc(O)c3c(=O)cc(-c4ccc(C(F)(F)F)cc4Cl)oc23)[C@@H]1CO.O=S(=O)(O)c1cccc2c(S(=O)(=O)O)cccc12	4.3

So for CN1CCC(c2c(O)cc(O)c3c(=O)cc(-c4ccc(C(F)(F)F)cc4Cl)oc23)C1CO.CN1CCC(c2c(O)cc(O)c3c(=O)cc(-c4ccc(C(F)(F)F)cc4Cl)oc23)C1CO.O=C(OC(C(=O)O)C(OC(=O)c1ccccc1)C(=O)O)c1ccccc1 (centres unmarked) , the logged pH (4 h) turned out to be 4.0
